# System: HCV proteins in Rep5.1 cells (replicon cell line)
# assay.info: Inhibitory activity of HCV: cell-based ELISA in replicon cell line Rep5.1 (decrease of HCV proteins)
# Set-up: species or system hepatitis C virus
# condition: Hepatitis C virus, 72 h, Rep5.1 cells, 72 hours with drug, decrease of HCV proteins measured by HCV antibody; Table 1; read-out: Level (IC50 values classified)
measure: IC50

Enquiry: Identify the measured IC50 of CCCN(CC)c1ccc(CCOC(=O)C2=C(C)NC(=S)NC2CO)cc1[N+](=O)[O-] (centres unmarked) for HCV proteins in Rep5.1 cells (replicon cell line).
Return: < 1 µM

Enquiry: Identify the measured IC50 of `CC1=C(C(=O)OCCCc2ccncc2)CNC(=S)N1` for HCV proteins in Rep5.1 cells (replicon cell line).
Return: > 20 µM

Enquiry: Identify the measured IC50 of `CC1=C(C(=O)OCC2CCC2)CNC(=S)N1` for HCV proteins in Rep5.1 cells (replicon cell line).
Return: 1 to 10 µM

Enquiry: Identify the measured IC50 of `CC1=C(C(=O)OCC=Cc2ccsc2)CNC(=S)N1` for HCV proteins in Rep5.1 cells (replicon cell line).
Return: < 1 µM

Enquiry: Identify the measured IC50 of `C=C(Br)CCOC(=O)C1=C(C)NC(=S)NC1` for HCV proteins in Rep5.1 cells (replicon cell line).
Return: 1 to 10 µM

====

# Test system: HCV proteins in Rep5.1 cells (replicon cell line)
# assay.info: Inhibitory activity of HCV: cell-based ELISA in replicon cell line Rep5.1 (decrease of HCV proteins)
# Set-up: species or system hepatitis C virus
# condition: Hepatitis C virus, 72 h, Rep5.1 cells, 72 hours with drug, decrease of HCV proteins measured by HCV antibody; Table 1; read-out: Level (IC50 values classified)
Would you mind telling me the reported IC50 of each entry?

Enquiry: Entry under review: `CC1=C(C(=O)OCCc2ccsc2Br)CNC(=S)N1` . Reported IC50?
Return: < 1000 nM

Enquiry: Entry under review: `CC1=C(C(=O)OCc2cccc(C(F)(F)F)c2)CNC(=S)N1` . Reported IC50?
Return: < 1000 nM

Enquiry: Entry under review: `CC1=C(C(=O)OCc2cc3c(cc2[N+](=O)[O-])OCO3)CNC(=S)N1` . Reported IC50?
Return: 10000 to 20000 nM

Enquiry: Entry under review: CC1=C(C(=O)SCCc2ccccc2)C(CF)NC(=S)N1 (stereo not shown) . Reported IC50?
Return: < 1000 nM

Enquiry: Entry under review: `CC1=C(C(=O)OCc2cc(F)cc(F)c2)CNC(=S)N1` . Reported IC50?
Return: < 1000 nM

Enquiry: Entry under review: `COc1ccc(CCCOC(=O)C2=C(C)NC(=S)NC2)cc1OC` . Reported IC50?
Return: > 20000 nM

Enquiry: Entry under review: `CC1=C(C(=O)OCC2CC2)CNC(=S)N1` . Reported IC50?
Return: 10000 to 20000 nM

Enquiry: Entry under review: CC1=C(C(=O)OCc2cccc(Oc3ccccc3)c2)C(CO)NC(=S)N1 (stereo not shown) . Reported IC50?
Return: < 1000 nM

Enquiry: Entry under review: `COc1ccc(Cl)cc1COC(=O)C1=C(C)NC(=S)NC1` . Reported IC50?
Return: < 1000 nM

Enquiry: Entry under review: CC1=C(C(=O)OCCc2ccccc2)C(CF)NC(=S)N1 (stereo not shown) . Reported IC50?
Return: < 1000 nM
